The entries below are paired with their reported pEC50.
System: HCV replicon
Experiment: HCV replicon replication assay (NPT ELISA)
Assay type: cell-based
Conditions: Hepatitis C virus, Huh-7
Method: Compounds claimed herein are tested for the ability to inhibit viral replication of the Hepatitis C replicon in cultured cells in which the HCV replicon construct has been incorporated. […] In this assay HCV replicon containing cells are treated with different concentrations of the test compound to ascertain the ability of the test compound to suppress replication of the HCV replicon. […] The NPT level of each sample is measured using a captured ELISA. […]
pEC50: −log10 of the molar value.

[
  {
    "COMPOUND": "COC(=O)NC(C(=O)N1c2ccccc2C[C@H]1c1nc(-c2ccc(-c3ccc(-c4cnc([C@@H]5Cc6ccccc6N5C(=O)C(NC(=O)OC)C(C)C)[nH]4)cc3)cc2)c[nH]1)C(C)C (some centres unmarked) [Compound 25]",
    "pEC50": "≥ 5.00"
  },
  {
    "COMPOUND": "CNC(=O)C[C@H](C(=O)N1CCC[C@@H]1c1ncc(-c2ccc(-c3ccc(-c4cnc([C@@H]5CCCN5C(=O)[C@@H](CC(=O)NC)C(C)C)[nH]4)cc3)cc2)[nH]1)C(C)C [Compound 40]",
    "pEC50": "≥ 5.00"
  },
  {
    "COMPOUND": "CCS(=O)(=O)N[C@H](C(=O)N1C2CCC(C2)[C@H]1c1nc(-c2ccc(-c3ccc(-c4c[nH]c([C@@H]5C6CCC(C6)N5C(=O)[C@@H](NS(=O)(=O)CC)C(C)C)n4)cc3)cc2)c[nH]1)C(C)C [Compound 33]",
    "pEC50": "≥ 5.00"
  },
  {
    "COMPOUND": "COC(=O)N[C@H](C(=O)N1CCC[C@H]1c1cnc(-c2ccc(-c3ccc(NC(=O)[C@H]4CCCCN4C(=O)[C@H](NC(=O)OC(C)(C)C)c4ccccc4)cc3)cc2)[nH]1)C(C)C [Compound 39]",
    "pEC50": "≥ 5.00"
  }
]

// switching to the query compound
Given the entry CNC(=O)C[C@H](C(=O)N1C2CCC(C2)[C@H]1c1nc(-c2ccc(-c3ccc(-c4cnc([C@@H]5C6CCC(C6)N5C(=O)[C@@H](CC(=O)NC)C(C)C)[nH]4)cc3)cc2)c[nH]1)C(C)C (some centres unmarked) [Compound 38] , report its measured pEC50.
≥ 5.00

Where do the numbers come from? From patent US9125904B1.
